Recorded efflux ratio, one value per entry.
System: MDR1 (P-gp)
Experiment: Efflux ratio of apparent permeability from basolateral to apical side over apical to basolateral side in dog MDCK-MDR1 cells
Assay type: ADME, cell-based, Canis lupus familiaris
quantity-name: efflux ratio

[[record]]
structure_smiles = "C[C@@H](C(=O)N1CCNC(C)(C)C1)N1CCC(n2c(=O)[nH]c3ccccc32)CC1"
recorded_result = 5.2

[[record]]
structure_smiles = "C[C@@H](CN1CCC2(CC1)OC(=O)Nc1cc(F)ccc12)NC(=O)c1ccc(F)cc1"
recorded_result = 42

[[record]]
structure_smiles = "C[C@@H](CN1CCC(n2c(=O)oc3ccccc32)CC1)NC(=O)c1ccc(F)cc1"
recorded_result = 2

[[record]]
structure_smiles = "C[C@@H](CN1CCC2(CC1)c1ccccc1NC(=O)N2C)NC(=O)c1ccc(F)cc1"
recorded_result = 93

[[record]]
structure_smiles = "C[C@@H](CN1CCC(c2n[nH]c3ccccc23)CC1)NC(=O)c1ccc(F)cc1"
recorded_result = 8


----------
Experiment: Clearance in iv dosed rat administered as cassette dose
Type: ADME, organism-based
Settings: in vivo
Would you mind labelling by clearance? At or over 40 mL/min/kg is Satisfied, under is Not satisfied.

[[record]]
structure_smiles = "C[C@@H](C(=O)N1CCC(F)(F)C1)N1CCC(n2c(=O)[nH]c3ccccc32)CC1"
qualitative_label = "Not satisfied"

[[record]]
structure_smiles = "C[C@@H]1CN(C(=O)[C@H](C)N2CCC(n3c(=O)[nH]c4ccccc43)CC2)C[C@H](C)N1"
qualitative_label = "Satisfied"

[[record]]
structure_smiles = "C[C@@H](CN1CCC2(CC1)C(=O)NCN2c1cccc(F)c1)NC(=O)c1ccc(Br)cc1"
qualitative_label = "Not satisfied"

[[record]]
structure_smiles = "C[C@@H](CN1CCC2(CC1)OC(=O)Nc1ccncc12)NC(=O)c1ccc(F)cc1"
qualitative_label = "Satisfied"

[[record]]
structure_smiles = "C[C@@H](CN1CCC2(CC1)NC(=O)Nc1ccccc12)NC(=O)c1ccc(F)cc1"
qualitative_label = "Not satisfied"

[[record]]
structure_smiles = "C[C@@H](C(=O)N1CCOCC1)N1CCC(n2c(=O)[nH]c3ccccc32)CC1"
qualitative_label = "Not satisfied"


----------
Recorded solubility kinetic, one value per entry.
Experiment: Kinetic solubility of compound at pH 6.8
Format: physicochemical
Settings: buffer, read-out: Kinetic_solubility
quantity-name: solubility kinetic (µg/mL)

[[record]]
structure_smiles = "C[C@@H](CN1CCC2(CC1)NC(=O)Nc1ccccc12)NC(=O)c1ccc(F)cc1"
quantity_name = "solubility kinetic"
units_of_measure = "µg/mL"
recorded_result = 51

[[record]]
structure_smiles = "C[C@@H](CN1CCC2(CC1)OC(=O)Nc1cccnc12)NC(=O)c1ccc(F)cc1"
quantity_name = "solubility kinetic"
units_of_measure = "µg/mL"
recorded_result = 59

[[record]]
structure_smiles = "C[C@@H](CN1CCC2(CC1)OC(=O)Nc1ccncc12)NC(=O)c1ccc(F)cc1"
quantity_name = "solubility kinetic"
units_of_measure = "µg/mL"
recorded_result = 58

[[record]]
structure_smiles = "C[C@@H](CN1CCC2(CC1)c1ccccc1NC(=O)N2C)NC(=O)c1ccc(F)cc1"
quantity_name = "solubility kinetic"
units_of_measure = "µg/mL"
recorded_result = 71

[[record]]
structure_smiles = "C[C@@H]1CN(C(=O)[C@H](C)N2CCC(n3c(=O)[nH]c4ccccc43)CC2)C[C@@H](C)N1"
quantity_name = "solubility kinetic"
units_of_measure = "µg/mL"
recorded_result = 72.6

[[record]]
structure_smiles = "C[C@@H](CN1CCC2(CC1)CC(=O)Nc1ccccc12)NC(=O)c1ccc(F)cc1"
quantity_name = "solubility kinetic"
units_of_measure = "µg/mL"
recorded_result = 59

[[record]]
structure_smiles = "C[C@@H](CN1CCC2(CC1)OC(=O)Nc1ccccc12)NC(=O)c1ccc(F)cc1"
quantity_name = "solubility kinetic"
units_of_measure = "µg/mL"
recorded_result = 76

[[record]]
structure_smiles = "C[C@@H](CN1CCC2(CC1)OC(=O)NC[C@H]2c1cccc(F)c1)NC(=O)c1ccc(F)cc1"
quantity_name = "solubility kinetic"
units_of_measure = "µg/mL"
recorded_result = 61

[[record]]
structure_smiles = "C[C@@H](CN1CCC2(CC1)C(=O)NCN2c1cccc(F)c1)NC(=O)c1ccc(Br)cc1"
quantity_name = "solubility kinetic"
units_of_measure = "µg/mL"
recorded_result = 3.8

